Entry source: patent US20120022116A1

Target: hERG channel (Homo sapiens, UniProt Q12809)
Sequence (Q12809 whole entry): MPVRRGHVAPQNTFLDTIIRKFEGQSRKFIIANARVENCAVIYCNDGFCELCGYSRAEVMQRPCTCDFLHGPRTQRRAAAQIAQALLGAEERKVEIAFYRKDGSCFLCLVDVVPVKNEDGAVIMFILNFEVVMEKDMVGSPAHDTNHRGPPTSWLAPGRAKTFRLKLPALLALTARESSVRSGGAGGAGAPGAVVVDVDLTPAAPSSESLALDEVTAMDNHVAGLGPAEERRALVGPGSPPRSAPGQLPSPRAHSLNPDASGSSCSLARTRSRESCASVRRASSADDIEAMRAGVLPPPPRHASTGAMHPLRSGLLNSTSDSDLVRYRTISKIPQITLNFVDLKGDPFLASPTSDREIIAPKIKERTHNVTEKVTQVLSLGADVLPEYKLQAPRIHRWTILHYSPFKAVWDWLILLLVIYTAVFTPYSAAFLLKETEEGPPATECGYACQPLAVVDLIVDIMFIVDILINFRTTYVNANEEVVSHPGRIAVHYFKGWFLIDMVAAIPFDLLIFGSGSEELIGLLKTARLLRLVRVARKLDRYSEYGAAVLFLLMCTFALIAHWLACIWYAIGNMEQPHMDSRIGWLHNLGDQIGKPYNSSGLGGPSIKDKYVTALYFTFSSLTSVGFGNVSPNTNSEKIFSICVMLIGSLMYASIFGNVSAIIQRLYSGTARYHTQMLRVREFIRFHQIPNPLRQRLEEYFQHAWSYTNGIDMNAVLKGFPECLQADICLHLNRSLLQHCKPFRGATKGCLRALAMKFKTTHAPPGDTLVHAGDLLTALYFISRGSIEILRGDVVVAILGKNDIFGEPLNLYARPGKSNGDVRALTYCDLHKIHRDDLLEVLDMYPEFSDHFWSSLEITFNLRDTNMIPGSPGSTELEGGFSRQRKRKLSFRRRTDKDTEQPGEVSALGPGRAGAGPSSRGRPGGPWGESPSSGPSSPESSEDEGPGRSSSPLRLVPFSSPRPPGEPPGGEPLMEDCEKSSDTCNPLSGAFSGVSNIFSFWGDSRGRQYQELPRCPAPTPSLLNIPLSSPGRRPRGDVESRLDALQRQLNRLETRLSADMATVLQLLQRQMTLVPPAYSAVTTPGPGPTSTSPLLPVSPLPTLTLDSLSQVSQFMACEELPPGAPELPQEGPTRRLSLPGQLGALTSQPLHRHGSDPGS
Experiment: Automated patch clamp recording of hERG tail current (IonWorks)
Conditions: hERG tail current ratio post/pre-compound, 50 uM
readout.type: Electrophysiology (HEK-hERG)

CC1=C(C#N)C(=C(C#N)C(N)=C(C#N)C#N)OC1(C)C [Compound 08] : inactive
OCCN(CCO)c1ccc(C=Cc2cccs2)cc1 [Compound 24] : inactive
CC1=C(C#N)C(=C(C#N)C#N)OC1(C)c1ccc(Cl)c(Cl)c1Cl (centres unmarked) [Compound 06] : inactive

---

Target: hERG channel (Homo sapiens)
Experiment: Automated patch clamp recording of hERG tail current (IonWorks)
Settings: hERG tail current ratio post/pre-compound, 50 uM
readout.type: Electrophysiology (HEK-hERG)

In the examples that follow, each entry is paired with its recorded Electrophysiology (HEK-hERG).
CCNc1nc(C)nc2c1cnn2-c1ccc(C)cc1 : activator
CC1=C(C#N)C(=C(C#N)C#N)OC12c1ccccc1-c1ccccc12 : inactive
CC1=C(C#N)C(=C(C#N)C#N)OC1(C)c1ccc(Cl)c(Cl)c1 (stereo not shown) : inactive
CC1=C(CC(=O)O)c2cc(F)ccc2/C1=C\c1ccc([S+](C)[O-])cc1 (stereo not shown) : blocker
CN(CCO)c1ccc(C=Cc2ccc(C(=O)[O-])s2)cc1.[Li+] : inactive
O=C(O)c1cc([N+](=O)[O-])ccc1NCCCc1ccccc1 : activator
Cc1c(Nc2ncccc2C(=O)O)cccc1C(F)(F)F : activator
O=C(O)c1cc(/N=N/c2ccc(S(=O)(=O)Nc3ccccn3)cc2)ccc1O : inactive

O=C([O-])c1ccc(-c2ccc(/C=C/c3ccc(N(CCO)CCO)cc3)s2)s1.[Na+] has a reported Electrophysiology (HEK-hERG) of activator

Data point: CC1=C(C#N)C(=C(C#N)C#N)OC1(C)C ; Electrophysiology (HEK-hERG) = inactive

---

Test system: hERG channel
Assay: Cross-desensitization DMR assay against hERG activator mallotoxin-induced DMR in HT29 cells
Conditions: HT29 cells pretreated with compound, then hERG activator mallotoxin
readout.type: Desenstization to hERG activator

The following molecules have reported results that may help.
Cc1ccc(Cl)c(Nc2ccccc2C(=O)O)c1Cl [Meclofenamate] : partially desenstized
O=C(O)c1ccccc1Nc1cccc(C(F)(F)F)c1 [Flufenamic acid] : desenstized
N#C/C(=C\c1ccc(O)c(O)c1)C(N)=S [Tyrphostin 47] : partially desenstized
O=C([O-])c1ccc(-c2ccc(/C=C/c3ccc(N(CCO)CCO)cc3)s2)s1.[Na+] [Compound 29] : partially desenstized

The reported Desenstization to hERG activator of the molecule CC(=O)c1c(O)c(C)c(O)c(Cc2c(O)c3c(c(C(=O)/C=C/c4ccccc4)c2O)OC(C)(C)C=C3)c1O [Mallotoxin, mallotoxin] was desenstized

Measured Desenstization to hERG activator, N#CC(C#N)=C(N)/C(C#N)=C/c1cc(O)c(O)c(O)c1 [Tyrphostin 51] : partially desenstized

---

Molecular target: GPR35 (Homo sapiens)
Construct: myc; expressed in transfected cells; host or cells: HEK293, transient co-transfection (Lipofectamine LTX)
Sequence (Q9HC97 whole entry): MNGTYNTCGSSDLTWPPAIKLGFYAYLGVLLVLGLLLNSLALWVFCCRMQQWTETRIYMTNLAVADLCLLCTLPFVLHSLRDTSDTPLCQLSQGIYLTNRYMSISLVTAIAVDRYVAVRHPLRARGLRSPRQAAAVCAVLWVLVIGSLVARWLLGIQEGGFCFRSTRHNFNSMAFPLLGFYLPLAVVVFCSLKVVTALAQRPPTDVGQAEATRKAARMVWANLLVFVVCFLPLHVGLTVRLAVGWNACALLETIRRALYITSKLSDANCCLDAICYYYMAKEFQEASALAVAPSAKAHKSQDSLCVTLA
Assay: Ca2+ mobilization assay (Fluo-4) in HEK-GPR35-Gqo5 cells
Format: cell-based
Conditions: HEK293 cells co-expressing GPR35 and Gqo5; Fluo-4; compounds 10 μM
readout.type: Ca2+ moblization (HEK-GPR35-Gqo5)

CC1=C(CC(=O)O)c2cc(F)ccc2/C1=C\c1ccc([S+](C)[O-])cc1 (stereo not shown) : inactive
O=C(O)Cc1ccccc1Nc1c(Cl)cccc1Cl : inactive
OCCN(CCO)c1ccc(C=Cc2cccs2)cc1 : inactive
Cc1c(Cl)cccc1Nc1ccccc1C(=O)O : active
CCCCCCCCc1c(C(=O)O)sc2c(Br)csc12 : active
O=Cc1ccc(-c2ccc(CO)s2)s1 : inactive
Cc1c(C(=O)O)sc2ccsc12 : active
CCCCCCc1csc2cc(C(=O)O)sc12 : active
CCCOc1ccccc1-c1nc2nn[nH]c2c(=O)[nH]1 : active
NS(=O)(=O)c1cc(C(=O)O)c(NCc2ccco2)cc1Cl : active

Notebook: O=C(O)c1cc(/N=N/c2ccc(S(=O)(=O)Nc3ccccn3)cc2)ccc1O , Ca2+ moblization (HEK-GPR35-Gqo5) read as inactive

Ca2+ moblization (HEK-GPR35-Gqo5) for O=C(O)c1cccnc1Nc1cccc(C(F)(F)F)c1 is active

For this molecule ( O=C(O)c1cc(-c2ccc(F)cc2F)ccc1O ), measured Ca2+ moblization (HEK-GPR35-Gqo5) is active

The molecule listed as O=[N+]([O-])c1cc2nc(O)c(O)nc2cc1[N+](=O)[O-] has a reported Ca2+ moblization (HEK-GPR35-Gqo5) of active

In plain terms, CC1=C(C#N)C(=C(C#N)C(N)=C(C#N)C#N)OC1(C)C has a documented Ca2+ moblization (HEK-GPR35-Gqo5) of active

Lab note: measured Ca2+ moblization (HEK-GPR35-Gqo5) of CC1=C(C#N)C(=C(C#N)C#N)OC12CCCCC2 was inactive

Item: O=Cc1ccc(-c2cccs2)s1 | Ca2+ moblization (HEK-GPR35-Gqo5): inactive

The molecule identified as Cc1csc2c1sc1cc(C(=O)O)sc12 registered its Ca2+ moblization (HEK-GPR35-Gqo5) at inactive

Item: O=C(O)c1cc2sccc2s1 [Compound 11, thieno[3,2-b]thiophene-2-carboxylic acid] | Ca2+ moblization (HEK-GPR35-Gqo5): inactive

CC1=C(C#N)C(=C(C#N)C#N)OC1(c1ccccc1)C(F)(F)F (stereo not shown) yielded Ca2+ moblization (HEK-GPR35-Gqo5) of active

Lookup result for Cc1ccc(Cl)c(Nc2ccccc2C(=O)O)c1Cl [Meclofenamate] ; measured Ca2+ moblization (HEK-GPR35-Gqo5): inactive

Ca2+ moblization (HEK-GPR35-Gqo5) reported for this molecule O=C(O)c1cc([N+](=O)[O-])ccc1NCCCc1ccccc1 : active

Kindly note the recorded Ca2+ moblization (HEK-GPR35-Gqo5) for O=C1OC(OC(=O)c2cccnc2Nc2cccc(C(F)(F)F)c2)c2ccccc21 (stereo not shown) [Talniflumate] , which is inactive

// field: Ca2+ moblization (HEK-GPR35-Gqo5); key: CC1=C(C#N)C(=C(C#N)C#N)OC1(C)c1ccc(F)cc1F (stereo not shown) ; value = active

Record CCCCc1ccc(C2(C)OC(=C(C#N)C#N)C(C#N)=C2C)cc1 (stereo not shown) . Reported Ca2+ moblization (HEK-GPR35-Gqo5): inactive

Kindly note the recorded Ca2+ moblization (HEK-GPR35-Gqo5) for CC1=C(C#N)C(=C(C#N)C#N)OC1(C)c1c(F)c(F)c(F)c(F)c1F (stereo not shown) , which is active

Ca2+ moblization (HEK-GPR35-Gqo5) reading for O=C(O)c1cc(=O)c2ccccc2[nH]1 : inactive

Entry under test: CC1=C(C#N)C(=C(C#N)C#N)OC12c1ccccc1-c1ccccc12 . Its Ca2+ moblization (HEK-GPR35-Gqo5) was inactive

Summary for this molecule, O=C([O-])c1ccc(-c2ccc(/C=C/c3ccc(N(CCO)CCO)cc3)s2)s1.[Na+] : Ca2+ moblization (HEK-GPR35-Gqo5) is active
